Reference source for all entries: patent US20260234157A1

Target: AR protein (Homo sapiens, UniProt P10275)
Construct: degradation activity of the compounds disclosed in the present disclosure on AR protein in VCaP cells; host or cells: VCaP
Sequence (P10275 whole entry): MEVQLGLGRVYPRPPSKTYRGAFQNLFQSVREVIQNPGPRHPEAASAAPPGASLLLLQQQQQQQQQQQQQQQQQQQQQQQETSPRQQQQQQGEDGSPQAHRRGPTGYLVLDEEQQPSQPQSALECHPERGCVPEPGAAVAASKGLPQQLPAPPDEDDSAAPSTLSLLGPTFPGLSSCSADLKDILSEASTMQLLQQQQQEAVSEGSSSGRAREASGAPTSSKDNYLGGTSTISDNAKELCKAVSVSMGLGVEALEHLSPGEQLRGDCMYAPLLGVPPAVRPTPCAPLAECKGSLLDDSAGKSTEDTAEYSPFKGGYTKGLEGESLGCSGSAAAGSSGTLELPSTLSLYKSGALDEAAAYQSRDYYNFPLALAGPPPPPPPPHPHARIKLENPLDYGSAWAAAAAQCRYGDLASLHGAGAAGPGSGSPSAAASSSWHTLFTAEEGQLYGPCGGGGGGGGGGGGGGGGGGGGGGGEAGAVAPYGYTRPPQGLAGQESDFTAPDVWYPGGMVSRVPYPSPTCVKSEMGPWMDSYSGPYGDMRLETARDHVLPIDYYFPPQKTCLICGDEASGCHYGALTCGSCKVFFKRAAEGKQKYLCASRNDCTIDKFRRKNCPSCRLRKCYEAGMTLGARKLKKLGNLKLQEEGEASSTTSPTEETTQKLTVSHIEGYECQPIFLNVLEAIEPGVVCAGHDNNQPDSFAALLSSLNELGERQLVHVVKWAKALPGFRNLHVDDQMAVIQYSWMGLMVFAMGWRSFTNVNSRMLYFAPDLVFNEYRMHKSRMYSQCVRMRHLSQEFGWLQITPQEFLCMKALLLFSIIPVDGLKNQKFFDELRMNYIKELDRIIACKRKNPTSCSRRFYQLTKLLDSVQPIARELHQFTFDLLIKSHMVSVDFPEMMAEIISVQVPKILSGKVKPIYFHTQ
Assay: Degradation of AR protein in VCaP cells (Western blot)
Type: cell-based
Details: compound at 10 nM, 8 hours, read-out: Degradation rate of the AR protein in VCaP cells, 10 nM (%)
propertyMeasured: inhibition at 0.01 µM

Worked examples, 4 molecules total:
molecule="CCC1(CN2CCC3(CC2)COc2c3ccc3c2CN(C2CCC(=O)NC2=O)C3=O)CCN(c2ccc(C(=O)N[C@H]3CC[C@H](Oc4ccc(C#N)c(Cl)c4)CC3)nn2)CC1 (some centres unmarked) [Compound 236]" testedon="AR protein (Homo sapiens, UniProt P10275)" propertymeasured="inhibition at 0.01 µM" experimentalresult=37%
molecule="N#Cc1ccc(O[C@H]2CC[C@H](NC(=O)c3ccc(N4CCC5(CC4)COc4c5ccc5c4CN(C4CCC(=O)NC4=O)C5=O)nn3)CC2)cc1Cl (some centres unmarked) [Compound 200]" testedon="AR protein (Homo sapiens, UniProt P10275)" propertymeasured="inhibition at 0.01 µM" experimentalresult=25%
molecule="COc1cc(O[C@H]2C(C)(C)[C@H](NC(=O)c3ccc(N4CCC(C)(CN5CCC6(CCc7cc8c(cc7O6)C(=O)N(C6CCC(=O)NC6=O)C8)CC5)CC4)cc3)C2(C)C)ccc1C#N (some centres unmarked) [Compound 267]" testedon="AR protein (Homo sapiens, UniProt P10275)" propertymeasured="inhibition at 0.01 µM" experimentalresult=30%
molecule="COc1cc(O[C@H]2C(C)(C)[C@H](NC(=O)c3ccc(N4CCC(F)(CN5CCC6(CC5)COc5c6ccc6c5CN(C5CCC(=O)NC5=O)C6=O)CC4)cc3)C2(C)C)ccc1C#N (some centres unmarked) [Compound 223]" testedon="AR protein (Homo sapiens, UniProt P10275)" propertymeasured="inhibition at 0.01 µM" experimentalresult=-3%

Quick check: inhibition at 0.01 µM on AR protein (Homo sapiens, UniProt P10275), item N#Cc1ccc(O[C@H]2CC[C@H](NC(=O)c3ccc(N4CC5(CCC(N6CCC7(CC6)COc6cc8c(cc67)C(=O)N(C6CCC(=O)NC6=O)C8=O)CC5)C4)nn3)CC2)cc1Cl (some centres unmarked) [Compound 53] ?
62%
